These data points were gathered from paper PMC9032776.

Target: GLUT5 (Mus musculus, UniProt Q9WV38)
Construct: GLUT5-expressing murine mammary carcinoma cancer cells (EMT6); endogenous in cells; host or cells: EMT6 murine mammary carcinoma cells
Sequence (Q9WV38 1-501): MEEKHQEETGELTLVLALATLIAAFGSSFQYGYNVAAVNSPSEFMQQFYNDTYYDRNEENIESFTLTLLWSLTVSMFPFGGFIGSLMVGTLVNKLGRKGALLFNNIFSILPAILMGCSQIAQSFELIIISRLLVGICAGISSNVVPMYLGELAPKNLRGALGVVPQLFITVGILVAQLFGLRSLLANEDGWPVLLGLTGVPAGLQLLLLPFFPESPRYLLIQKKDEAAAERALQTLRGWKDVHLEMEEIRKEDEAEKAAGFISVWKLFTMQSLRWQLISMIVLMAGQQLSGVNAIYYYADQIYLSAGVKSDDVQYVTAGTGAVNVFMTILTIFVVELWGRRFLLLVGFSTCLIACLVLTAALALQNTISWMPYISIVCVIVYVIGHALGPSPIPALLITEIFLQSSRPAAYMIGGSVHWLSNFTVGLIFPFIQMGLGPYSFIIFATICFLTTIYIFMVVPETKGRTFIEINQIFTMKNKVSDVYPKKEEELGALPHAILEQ
Assay: In vitro inhibition of 6-[18F]FDF cell uptake (competition) in EMT6 cells
Assay type: cell-based, murine
Settings: 60 min incubation, glucose-free Krebs-Ringer buffer, mean ± SEM from n data points out of 2-4 experiments, read-out: IC50 (mM) against 6-[18F]FDF uptake into EMT6 cells
measured-metric: IC50 (mM)
The answer is to be given in mM; state only the numeric part.

Field: example entries. Status: answers known.
compound="O=C(CO)[C@@H](O)[C@H](O)[C@H](O)CF [6-FDF, 6-deoxy-6-fluoro-D-fructose]" experimental_target="GLUT5 (Mus musculus, UniProt Q9WV38)" units_symbol=mM numeric_result=17
compound="O=C(N[C@H]1[C@H](O)[C@@H](CO)O[C@@H]1CO)c1cc2ccc(OCCF)cc2oc1=O [Compound 11]" experimental_target="GLUT5 (Mus musculus, UniProt Q9WV38)" units_symbol=mM numeric_result=1.71

Give the reported IC50 for CN(C)c1cccc2c(S(=O)(=O)N[C@H]3[C@H](O)[C@@H](CO)O[C@@H]3CO)cccc12 [Compound 6] (system: GLUT5 (Mus musculus, UniProt Q9WV38)).
2.29
